Test system: Chikungunya virus (CHIKV)
PROTOCOL: microbe, parasite or virus in culture
Format: cell-based
ASSAY CONDITIONS: Chikungunya virus, Vero, 48 h, read-out: Percent viral inhibition CHKV
ENDPOINT LABEL: inhibition at 1 µM (%)
Report the value in % with no unit label.

Solved entries (count: 6):
CC(=O)NCC1CCN(Cc2cc(Oc3cnc(N4CCN(CCC(=O)O)CC4)nc3)cc(-c3cc(Cl)cc(Cl)c3)c2)CC1    29.6
CC(=O)NCC1CCN(Cc2cc(Oc3ccc(N4CCN(CCC(=O)O)[C@@H](C)C4)nc3)nc(-c3cc(Cl)cc(Cl)c3)c2)CC1    19.9
O=C(O)CC1CCN(Cc2cc(Oc3cnc(N4CCN5CCC4C5)cn3)nc(-c3cc(Cl)cc(Cl)c3)c2)CC1 (centres unmarked)    35.8
CCC(CN1CCN(c2ccc(Oc3cc(CN4CCC(CNC(C)=O)CC4)cc(-c4cc(Cl)cc(Cl)c4)n3)cn2)CC1)C(=O)O (centres unmarked)    28.2
CCC(=O)NCC1CCN(Cc2cc(Oc3cnc(N4CCN(CCC(C)C(=O)O)CC4)nc3)nc(-c3cc(Cl)cc(Cl)c3)c2)CC1 (centres unmarked)    35.1
CN1C[C@@H]2C[C@H]1CN2c1ccc(Oc2cc(CN3CCC(CC(=O)O)CC3)cc(-c3cc(Cl)cc(Cl)c3)n2)nn1    38.6

Problem: Provide the reported inhibition at 1 µM (system: Chikungunya virus (CHIKV)) for `CNC(=O)NCC1CCN(Cc2cc(Oc3ccc(N4CCN(CCOC)CC4)nc3)nc(-c3cc(Cl)cc(Cl)c3)c2)CC1`
Result: 5.74

Problem: Provide the reported inhibition at 1 µM (system: Chikungunya virus (CHIKV)) for `CCN1CCCN(c2cnc(Oc3cc(CN4CCC(CC(=O)O)CC4)cc(-c4cc(Cl)cc(Cl)c4)n3)cn2)CC1`
Result: 22.1

* * *

Test system: Marburg virus (MARV)
PROTOCOL: organism not typed
Type: cell-based
ASSAY CONDITIONS: Vero, 72 h, read-out: Percent viral inhibition MARV
Quick reference for inhibition at 1 µM among some compounds
I only need the number, in %, no unit after it.

CNC(=O)NCC1CCN(Cc2cc(Oc3cnc(N4CCN(CCCS(C)(=O)=O)CC4)nc3)nc(-c3cc(F)cc(Cl)c3)c2)CC1    49
CS(=O)(=O)NCC1CCN(Cc2cc(Oc3ccc(N4CCN(CCC(=O)O)CC4)nc3)nc(-c3cc(Cl)cc(Cl)c3)c2)CC1    49
CS(=O)(=O)CCC1CCN(Cc2cc(Oc3ccc(N4CCN(CCC(=O)O)CC4)nc3)nc(-c3cc(Cl)cc(Cl)c3)c2)CC1    51.8

Problem: Answer with the recorded inhibition at 1 µM of `CNC(=O)NCC1CCN(Cc2cc(Oc3cnc(N4CCN(CCC(=O)O)CC4)c(F)c3)nc(-c3cc(Cl)cc(Cl)c3)c2)CC1` only.
Result: 53.6

Problem: Provide only the value of recorded inhibition at 1 µM for `CNC(=O)OCCN1CCN(c2ncc(Oc3cc(CN4CCC(CC(=O)O)CC4)cc(-c4cc(Cl)cc(Cl)c4)n3)cn2)CC1`
Result: 73.1

Problem: Note inhibition at 1 µM for the compound shown: `C[C@@H](O)CN1CCN(c2ncc(Oc3cc(CN4CCC(OCC(=O)O)CC4)cc(-c4cc(Cl)cc(Cl)c4)n3)cn2)CC1`
Result: 53.6

Problem: Give the measured inhibition at 1 µM for `C[C@H]1CN(c2ncc(Oc3cc(CN4CCC(CC(=O)O)CC4)cc(-c4cc(Cl)cc(Cl)c4)n3)cn2)CCN1`
Result: 49.8

Problem: Complete the entry with inhibition at 1 µM for `CC(=O)NCC1CCN(Cc2cc(Oc3ccc(N4CCN(CC(=O)O)CC4)nc3)nc(-c3cc(Cl)cc(Cl)c3)c2)CC1`
Result: 34.8

Problem: Please indicate inhibition at 1 µM recorded for `CC(=O)NCC1CCN(Cc2cc(Oc3ccc(N4CCCN(CCC(=O)O)CC4)nc3)nc(-c3cc(Cl)cc(Cl)c3)c2)CC1`
Result: 44.8

Problem: Check the records and state inhibition at 1 µM for O=C(O)CC1CCN(Cc2cc(Oc3cnc(N4CCN5CCC4C5)cn3)nc(-c3cc(Cl)cc(Cl)c3)c2)CC1 (centres unmarked)
Result: 46.6

Problem: Recall and state the measured inhibition at 1 µM for CC(O)CC1CCN(Cc2cc(Oc3cnc(N4CCN(C)CC4)nc3)nc(-c3cc(Cl)cc(Cl)c3)c2)CC1 (centres unmarked) .
Result: 32.4

Problem: Read off the recorded inhibition at 1 µM for `CCN1CCN(c2ccc(Oc3cc(CN4CCC(CC(=O)O)CC4)cc(-c4cc(Cl)cc(Cl)c4)n3)nn2)CC1`
Result: 49

Problem: Item `CC(=O)NCC1CCN(Cc2cc(Oc3cnc(N4CCN(CCC(N)=O)CC4)nc3)nc(-c3cc(F)c(F)c(Cl)c3)c2)CC1` : provide inhibition at 1 µM
Result: 58.5

Problem: Entry `COCCN1CCN(c2ncc(Oc3cc(CN4CCC(CC(=O)O)CC4)cc(-c4cc(Cl)cc(Cl)c4)n3)cn2)CC1` needs its inhibition at 1 µM filled in; supply it.
Result: 49.7

* * *

System: Chikungunya virus (CHIKV)
PROTOCOL: microbe, parasite or virus in culture
Format: cell-based
ASSAY CONDITIONS: Chikungunya virus, Vero, 48 h, read-out: Percent viral inhibition CHKV
Binary classification by inhibition at 1 µM, with 20% as an inclusive lower bound for yes (1); all other cases are no (0).

Reference set (5 entries):
CN1CCCN(c2ccc(Oc3cc(CN4CCC(CC(=O)O)CC4)cc(-c4cc(Cl)cc(Cl)c4)n3)nn2)CC1 [Example 356]    yes (1)
CS(=O)(=O)CCCN1CCN(c2ccc(Oc3cc(CN4CCC(CCC(=O)O)CC4)cc(-c4cc(Cl)cc(Cl)c4)n3)cn2)CC1 [Example 271]    yes (1)
CC(=O)NCC1CCN(Cc2cc(Oc3ccc(N4CCN(CCN(C)S(C)(=O)=O)CC4)nc3)nc(-c3cc(Cl)cc(Cl)c3)c2)CC1 [Example 32]    yes (1)
CC(=O)NCC1CCN(Cc2cc(Oc3ccc(N4C[C@H]5CC[C@@H](C4)N5CCC(=O)O)nc3)nc(-c3cc(Cl)cc(Cl)c3)c2)CC1 [Example 185]    yes (1)
CC(=O)N[C@H]1[C@@H]2CCN(Cc3cc(Oc4cnc(N5CCN(CCC(C)C(=O)O)CC5)nc4)nc(-c4cc(Cl)cc(Cl)c4)c3)CC[C@@H]21 (stereo partly shown) [Example 82]    no (0)

Problem: Exam item: decide whether the reported inhibition at 1 µM for NS(=O)(=O)CCCN1CCN(c2ccc(Oc3cc(CN4CCC(CC(=O)O)CC4)cc(-c4cc(Cl)cc(Cl)c4)n3)cn2)CC1 [Example 252] is at least 20%.
Result: yes (1)

Problem: Has CS(=O)(=O)CCCN1CCN(c2ccc(Oc3cc(CN4CCC(CC(=O)O)CC4)cc(-c4cc(Cl)cc(Cl)c4)n3)cn2)CC1 [Example 243] a recorded inhibition at 1 µM greater than or equal to 20%?
Result: no (0)

* * *

System: Chikungunya virus (CHIKV)
PROTOCOL: microbe, parasite or virus in culture
Assay type: cell-based
ASSAY CONDITIONS: Chikungunya virus, Vero, 48 h, read-out: Percent viral inhibition CHKV
Threshold check on inhibition at 1 µM: at or above 20% gives Criterion met, strictly below gives Criterion not met.

Take a look at these entries with their results.
CN1CCN(c2ncc(Oc3cc(CN4CC[C@@H]5[C@H](CC4)[C@H]5CC(=O)O)cc(-c4cc(Cl)cc(Cl)c4)n3)cn2)CC1    Criterion met
CC1(C)CN(c2ncc(Oc3cc(CN4CCC(CC(=O)O)CC4)cc(-c4cc(Cl)cc(Cl)c4)n3)cn2)CCN1    Criterion met
CNC(=O)OCC1CCN(Cc2cc(Oc3cnc(N4CCN(CCCS(C)(=O)=O)CC4)nc3)nc(-c3cc(Cl)cc(Cl)c3)c2)CC1    Criterion not met
CN1CCCN(c2ncc(Oc3cc(CN4CC[C@@H]5[C@H](CC4)[C@H]5C(=O)O)cc(-c4cc(Cl)cc(Cl)c4)n3)cn2)CC1    Criterion met

Problem: Identify whether the reported inhibition at 1 µM of the following compound is 20% or greater: `CC(=O)NCC1CCN(Cc2cc(Oc3cnc(N4CCN(CCS(C)(=O)=O)CC4)nc3)cc(-c3cc(Cl)cc(Cl)c3)c2)CC1`
Result: Criterion not met

Problem: Check this compound for inhibition at 1 µM at or above 20%: `CS(=O)(=O)N[C@H]1[C@@H]2CCN(Cc3cc(Oc4cnc(N5CCN(CCC(=O)O)CC5)nc4)nc(-c4cc(Cl)cc(Cl)c4)c3)CC[C@@H]21`
Result: Criterion met

Problem: Please tell me: is the compound CC(=O)NCC1CCN(Cc2cc(Oc3ccc(N4CCNC(CO)C4)nc3)nc(-c3cc(Cl)cc(Cl)c3)c2)CC1 (stereo not drawn) at or over 20% in terms of inhibition at 1 µM?
Result: Criterion not met

Problem: Please check the record `CC(=O)NCC1CCN(Cc2cc(Oc3ccc(N4CCN([C@H]5C[C@@H](NS(C)(=O)=O)C5)CC4)nc3)nc(-c3cc(Cl)cc(Cl)c3)c2)CC1` and state if its inhibition at 1 µM is at or above 20%.
Result: Criterion met

Problem: Quick check: does CC(=O)NCC1CCN(Cc2cc(Oc3cnc(N4CCN(C(C)CC(N)=O)CC4)nc3)nc(-c3cc(Cl)cc(Cl)c3)c2)CC1 (stereo not drawn) have inhibition at 1 µM greater than or equal to 20%?
Result: Criterion met

// provenance: patent US20230011571A1
